experiment: Preclinical pharmacokinetics in mice; type: in vivo, mouse; settings: in vivo; ICR mouse, 30 mg/kg single oral administration
reported.metric: AUC(0-inf)
A bare number is not enough; add the unit after it.

response.value for CS(=O)(=O)O.C[C@H](NCc1ccc(-c2ccc(C(F)(F)F)cc2)cc1)C(N)=O [KDS2010] (field: AUC(0-inf)) = 27100 ng·h/mL

###

assay: Preclinical pharmacokinetics in monkeys; assay type: in vivo, Cynomolgus monkey; settings: cynomolgus monkey, in vivo
reported.metric: AUC(0-t)

response.value for `CS(=O)(=O)O.C[C@H](NCc1ccc(-c2ccc(C(F)(F)F)cc2)cc1)C(N)=O` (field: AUC(0-t)) = ~13000 ng·h/mL

###

test: Preclinical pharmacokinetics in monkeys; assay type: in vivo, Cynomolgus monkey; details: male, cynomolgus, cynomolgus monkey, in vivo, po, 10 mg/kg, t1/2
reported.metric: half-life (h)
Hi! Could you send only the number? It should be in h, unit omitted.

response.value for `CS(=O)(=O)O.C[C@H](NCc1ccc(-c2ccc(C(F)(F)F)cc2)cc1)C(N)=O` (field: half-life) = 13.7

###

Test: Preclinical pharmacokinetics in monkeys
Assay type: in vivo, Cynomolgus monkey
Conditions: male, cynomolgus, cynomolgus monkey, in vivo, po, 10 mg/kg
Procedure: In a pharmacokinetic study, plasma PK parameters were measured after a single oral administration of […] dose group and at 4 to 6 hours after administration in the 30 mg/kg dose group. In the elimination phase, the […] Systemic exposure (AUClast) to the test substance was 30587 and 80770 ng*hr/mL, respectively. […]
reported.metric: AUC(0-inf) (ng·h/mL)
Hi! Could you send only the number? It should be in ng·h/mL, unit omitted.

response.value for CS(=O)(=O)O.C[C@H](NCc1ccc(-c2ccc(C(F)(F)F)cc2)cc1)C(N)=O [KDS2010] (field: AUC(0-inf)) = 43600

###

experiment: in vivo; conditions: both, cynomolgus monkey, po
reported.metric: NOAEL at 4 weeks
A bare number is not enough; add the unit after it.

response.value for `CS(=O)(=O)O.C[C@H](NCc1ccc(-c2ccc(C(F)(F)F)cc2)cc1)C(N)=O` (field: NOAEL at 4 weeks) = 40 mg/kg

###

test: in vivo; settings: male, Sprague-Dawley, rat, NOAEL
reported.metric: NOAEL at 4 weeks (mg/kg/day)
Hi! Could you send only the number? It should be in mg/kg/day, unit omitted.

response.value for `CS(=O)(=O)O.C[C@H](NCc1ccc(-c2ccc(C(F)(F)F)cc2)cc1)C(N)=O` (field: NOAEL at 4 weeks) = 50

###

experiment: Preclinical pharmacokinetics in monkeys; format: in vivo, Cynomolgus monkey; conditions: male, cynomolgus monkey, in vivo, po, 30 mg/kg, t1/2
reported.metric: half-life
A bare number is not enough; add the unit after it.

response.value for `CS(=O)(=O)O.C[C@H](NCc1ccc(-c2ccc(C(F)(F)F)cc2)cc1)C(N)=O` (field: half-life) = 1020 min

###

experiment: Preclinical pharmacokinetics in mice; assay type: in vivo, mouse; conditions: in vivo; ICR mouse, 30 mg/kg single oral administration; read-out: Vd/F
reported.metric: Vd/F (L/kg)
Hi! Could you send only the number? It should be in L/kg, unit omitted.

response.value for `CS(=O)(=O)O.C[C@H](NCc1ccc(-c2ccc(C(F)(F)F)cc2)cc1)C(N)=O` (field: Vd/F) = 5.45

###

experiment: in vivo; set-up: species or system SD Rat; conditions: Sprague-Dawley, rat, po, 9 mg/kg
reported.metric: Cmax (ng/mL)
Hi! Could you send only the number? It should be in ng/mL, unit omitted.

response.value for CS(=O)(=O)O.C[C@H](NCc1ccc(-c2ccc(C(F)(F)F)cc2)cc1)C(N)=O [KDS2010] (field: Cmax) = 508

###

assay: Preclinical pharmacokinetics in monkeys; assay type: in vivo, Cynomolgus monkey; settings: male, cynomolgus, cynomolgus monkey, in vivo, po, 30 mg/kg, t1/2
reported.metric: half-life

response.value for CS(=O)(=O)O.C[C@H](NCc1ccc(-c2ccc(C(F)(F)F)cc2)cc1)C(N)=O [KDS2010] (field: half-life) = ~31.1 h

###

test: Preclinical pharmacokinetics in mice; format: in vivo, mouse; settings: in vivo; APP/PS1 mouse, 1 mg/kg single oral administration
reported.metric: half-life (h)
Hi! Could you send only the number? It should be in h, unit omitted.

response.value for `CS(=O)(=O)O.C[C@H](NCc1ccc(-c2ccc(C(F)(F)F)cc2)cc1)C(N)=O` (field: half-life) = 4.76

###

assay: Preclinical pharmacokinetics in monkeys; assay type: in vivo, Cynomolgus monkey; settings: male, cynomolgus monkey, in vivo, po, 30 mg/kg
reported.metric: AUC(0-inf)
A bare number is not enough; add the unit after it.

response.value for `CS(=O)(=O)O.C[C@H](NCc1ccc(-c2ccc(C(F)(F)F)cc2)cc1)C(N)=O` (field: AUC(0-inf)) = 202 µg·h/mL

###

test: in vivo; parameters: species or system SD Rat; conditions: SD, rat, po, 9 mg/kg
reported.metric: AUC(0-inf) (ng·h/mL)
Hi! Could you send only the number? It should be in ng·h/mL, unit omitted.

response.value for `CS(=O)(=O)O.C[C@H](NCc1ccc(-c2ccc(C(F)(F)F)cc2)cc1)C(N)=O` (field: AUC(0-inf)) = 9120

###

Assay: in vivo
Parameters: species or system SD Rat
Conditions: Sprague-Dawley, rat
Method: Next, we tested whether pharmacological inhibition of MAOB facilitates recovery after SCI. […] The pharmacokinetic (PK) analysis of KDS2010 was performed in mice, rats, and nonhuman primates. […] We then assessed the tissue recovery using EC staining on cross and longitudinal sections of the spinal cord. […] In a pharmacokinetic study, plasma PK parameters were measured after a single oral administration of […]
reported.metric: AUC(0-t)

response.value for `CS(=O)(=O)O.C[C@H](NCc1ccc(-c2ccc(C(F)(F)F)cc2)cc1)C(N)=O` (field: AUC(0-t)) = ~3000 ng·h/mL

###

experiment: Preclinical pharmacokinetics in mice; type: in vivo, mouse; conditions: in vivo; ICR mouse, 5 mg/kg single intravenous administration
reported.metric: AUC(0-inf) (ng·h/mL)
Hi! Could you send only the number? It should be in ng·h/mL, unit omitted.

response.value for `CS(=O)(=O)O.C[C@H](NCc1ccc(-c2ccc(C(F)(F)F)cc2)cc1)C(N)=O` (field: AUC(0-inf)) = 3590

###

experiment: in vivo; set-up: species or system SD Rat; conditions: SD, rat, po, 9 mg/kg
reported.metric: Vd/F (L/kg)
Hi! Could you send only the number? It should be in L/kg, unit omitted.

response.value for CS(=O)(=O)O.C[C@H](NCc1ccc(-c2ccc(C(F)(F)F)cc2)cc1)C(N)=O [KDS2010] (field: Vd/F) = 19.7

###

Assay: Preclinical pharmacokinetics in monkeys
Type: in vivo, Cynomolgus monkey
Settings: male, cynomolgus monkey, in vivo, po, 10 mg/kg
Protocol: In a pharmacokinetic study, plasma PK parameters were measured after a single oral administration of […] dose group and at 4 to 6 hours after administration in the 30 mg/kg dose group. In the elimination phase, the […] Systemic exposure (AUClast) to the test substance was 30587 and 80770 ng*hr/mL, respectively. […]
reported.metric: AUC(0-inf) (ng·h/mL)
Hi! Could you send only the number? It should be in ng·h/mL, unit omitted.

response.value for CS(=O)(=O)O.C[C@H](NCc1ccc(-c2ccc(C(F)(F)F)cc2)cc1)C(N)=O [KDS2010] (field: AUC(0-inf)) = 43600

###

experiment: in vivo; conditions: female, Sprague-Dawley, rat, human equivalent dose (HED) of NOAEL
reported.metric: NOAEL at 4 weeks (mg/kg)
Hi! Could you send only the number? It should be in mg/kg, unit omitted.

response.value for `CS(=O)(=O)O.C[C@H](NCc1ccc(-c2ccc(C(F)(F)F)cc2)cc1)C(N)=O` (field: NOAEL at 4 weeks) = 4.84

###

target: hERG (Homo sapiens, UniProt Q12809)
Sequence (Q12809 whole entry): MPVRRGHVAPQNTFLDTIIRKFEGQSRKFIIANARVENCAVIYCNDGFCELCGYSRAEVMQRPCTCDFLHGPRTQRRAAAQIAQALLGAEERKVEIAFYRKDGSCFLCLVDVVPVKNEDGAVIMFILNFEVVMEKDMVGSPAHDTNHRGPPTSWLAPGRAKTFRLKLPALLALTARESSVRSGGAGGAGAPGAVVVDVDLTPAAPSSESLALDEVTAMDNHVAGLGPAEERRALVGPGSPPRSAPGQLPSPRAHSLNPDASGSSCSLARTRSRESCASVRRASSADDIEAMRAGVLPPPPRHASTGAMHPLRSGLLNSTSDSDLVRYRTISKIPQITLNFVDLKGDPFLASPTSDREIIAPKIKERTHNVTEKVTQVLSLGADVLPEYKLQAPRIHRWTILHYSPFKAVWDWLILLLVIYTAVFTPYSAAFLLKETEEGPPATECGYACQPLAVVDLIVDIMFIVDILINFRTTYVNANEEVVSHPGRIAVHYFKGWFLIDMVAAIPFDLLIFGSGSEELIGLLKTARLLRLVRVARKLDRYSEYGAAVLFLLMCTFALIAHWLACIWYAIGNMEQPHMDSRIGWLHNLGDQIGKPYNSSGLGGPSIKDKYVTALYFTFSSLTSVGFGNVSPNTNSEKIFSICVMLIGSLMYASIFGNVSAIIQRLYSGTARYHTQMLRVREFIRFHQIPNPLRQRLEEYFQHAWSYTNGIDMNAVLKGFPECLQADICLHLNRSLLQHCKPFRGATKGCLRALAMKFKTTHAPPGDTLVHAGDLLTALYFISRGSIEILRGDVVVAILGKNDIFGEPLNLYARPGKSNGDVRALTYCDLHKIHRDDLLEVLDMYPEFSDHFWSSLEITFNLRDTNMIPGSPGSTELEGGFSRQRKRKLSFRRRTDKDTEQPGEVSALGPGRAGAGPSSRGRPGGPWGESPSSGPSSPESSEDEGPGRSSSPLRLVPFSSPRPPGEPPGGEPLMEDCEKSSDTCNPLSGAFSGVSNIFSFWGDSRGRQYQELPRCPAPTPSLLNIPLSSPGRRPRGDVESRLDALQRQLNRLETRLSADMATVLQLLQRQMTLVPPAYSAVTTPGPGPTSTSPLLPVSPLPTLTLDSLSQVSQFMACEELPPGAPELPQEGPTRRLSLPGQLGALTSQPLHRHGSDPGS
reported.metric: pIC50
Worth noting: pIC50 values are minus log10 of concentrations stated in mol/L.

Readout pIC50 for `CS(=O)(=O)O.C[C@H](NCc1ccc(-c2ccc(C(F)(F)F)cc2)cc1)C(N)=O` , test system hERG (Homo sapiens, UniProt Q12809), was 5.11

###

test: in vivo; parameters: species or system SD Rat; conditions: SD, rat, po, 9 mg/kg
reported.metric: half-life (h)
Hi! Could you send only the number? It should be in h, unit omitted.

response.value for `CS(=O)(=O)O.C[C@H](NCc1ccc(-c2ccc(C(F)(F)F)cc2)cc1)C(N)=O` (field: half-life) = 14.6

###

assay: Preclinical pharmacokinetics in monkeys; assay type: in vivo, Cynomolgus monkey; details: male, cynomolgus monkey, in vivo, po, 10 mg/kg
reported.metric: CL/F (mL/min/kg)
Hi! Could you send only the number? It should be in mL/min/kg, unit omitted.

response.value for `CS(=O)(=O)O.C[C@H](NCc1ccc(-c2ccc(C(F)(F)F)cc2)cc1)C(N)=O` (field: CL/F) = 3.8
